# Tested on: Malme-3M
# PROCEDURE_SUMMARY: NCI tumour cell line growth inhibition, 48 h
Activity calls are given as the source filed them. No stated cut-off is given here; in the data, active = GI50 up to about 1.1 µM and inactive = higher.
Recorded GI50, one value per entry.
REPORTED_ENDPOINT: GI50

[[record]]
compound = "CCCc1cn2c(/C=N/NC(=N)N)c(-c3ccc(Cl)c([N+](=O)[O-])c3)nc2s1"
reported_endpoint = "GI50"
measured_value = "1.68 µM (inactive)"

[[record]]
compound = "COc1ccc(NC(=O)CCc2cc(-c3ccc(O)c(OC)c3)nc(NC#N)n2)cc1"
reported_endpoint = "GI50"
measured_value = "> 100 µM (inactive)"

[[record]]
compound = "C=CCN1CC2CN=NC2(C#N)C1 (configuration not stated)"
reported_endpoint = "GI50"
measured_value = "> 100 µM (inactive)"

[[record]]
compound = "O=C(NCC(O)COc1ccccc1)c1ccccc1O (configuration not stated)"
reported_endpoint = "GI50"
measured_value = "> 100 µM (inactive)"

[[record]]
compound = "NNC(=O)C(=O)N/N=C1/CCCC1C(=O)CCC(=O)Nc1ccc(Cl)cc1 (configuration not stated)"
reported_endpoint = "GI50"
measured_value = "> 100 µM (inactive)"

[[record]]
compound = "O=C(Cc1ccccc1)NN1C(=O)C(Cl)C1c1cccc(O)c1 (configuration not stated)"
reported_endpoint = "GI50"
measured_value = "31.6 µM (inactive)"

[[record]]
compound = "CC(NCc1c(O)ccc2ccc(=O)oc12)C(=O)O (configuration not stated)"
reported_endpoint = "GI50"
measured_value = "> 100 µM (inactive)"


###

Recorded GI50, one value per entry.
# System: NCI-H522
# PROCEDURE_SUMMARY: NCI tumour cell line growth inhibition, 48 h
Activity calls are given as the source filed them. Rule as the data show it: active = GI50 up to about 1.1 µM and inactive = higher.
REPORTED_ENDPOINT: GI50

[[record]]
molecule = "CCCCCNC(=O)c1cc2cc(CCl)ccc2oc1=O"
measured_value = "3.24 µM (inactive)"

[[record]]
molecule = "CC1=NN(c2ccccc2)C(=O)C1C(=O)C(=O)Nc1ccc(C)cc1C (stereo not drawn)"
measured_value = "> 100 µM (inactive)"

[[record]]
molecule = "CC(C)(C)[Si](C)(C)OCC1OC(n2cnc3c(N)ncnc32)C(O)C1O (stereo not drawn)"
measured_value = "> 100 µM (inactive)"

[[record]]
molecule = "COc1ccc(/C=C\\c2cc(OC)c(OC)c(OC)c2)cc1OC"
measured_value = "0.0349 µM (active)"

[[record]]
molecule = "Nc1ccc2c(SCCSc3c4ccccc4nc4cc(N)ccc34)c3ccccc3nc2c1"
measured_value = "> 100 µM (inactive)"

[[record]]
molecule = "CN(C)c1nc(N(C)C)nc(N(C)CN(C)c2ccccc2)n1"
measured_value = "> 100 µM (inactive)"

[[record]]
molecule = "CN1CCC(O)(OC(=O)C(c2ccccc2)C2(O)CCCC2)CC1 (stereo not drawn)"
measured_value = "> 100 µM (inactive)"

[[record]]
molecule = "CCCCc1c2c(nc3c1CCC/C3=C\\c1ccccc1)C(=O)CCC2"
measured_value = "13.2 µM (inactive)"

[[record]]
molecule = "CCN(CC)CCNc1ccc2ncn3c4c(OC)cccc4c(=O)c1c23"
measured_value = "4.4 µM (inactive)"

[[record]]
molecule = "CC(NCc1c(O)ccc2ccc(=O)oc12)C(=O)O (stereo not drawn)"
measured_value = "> 100 µM (inactive)"

[[record]]
molecule = "c1ccc(CCN2CCOCC2)nc1"
measured_value = "> 100 µM (inactive)"

[[record]]
molecule = "COC(=O)C(=O)C(C(=O)C(=O)Nc1ccc([N+](=O)[O-])cc1)c1nc2ccccc2nc1O (stereo not drawn)"
measured_value = "> 100 µM (inactive)"

[[record]]
molecule = "NNC(=O)N/N=C1\\CNC(=O)C(=O)C1c1nc2ccccc2s1 (stereo not drawn)"
measured_value = "> 100 µM (inactive)"


###

Recorded GI50, one value per entry.
# Test system: TK-10
# PROCEDURE_SUMMARY: NCI tumour cell line growth inhibition, 48 h
Calls of active or inactive are those of the source. Cut-off read from the data, not from the text of the source: active = GI50 up to about 1.1 µM and inactive = higher.
REPORTED_ENDPOINT: GI50

[[record]]
molecule = "O=C(Nc1cccc(O)c1)C(=O)C(C(=O)c1ccc(Cl)c(Cl)c1)C1OC(=O)c2ccccc21 (centres undefined)"
measured_value = "23.8 µM (inactive)"

[[record]]
molecule = "NCCc1ccc(S(=O)(=O)O)cc1[N+](=O)[O-]"
measured_value = "> 100 µM (inactive)"

[[record]]
molecule = "CN(C)c1nc(N(C)C)nc(N(C)CN(C)c2ccccc2)n1"
measured_value = "> 100 µM (inactive)"

[[record]]
molecule = "Cc1ccc2nc(/C=N/c3ccc(Cl)cc3)cc(C)c2c1"
measured_value = "2.9 µM (inactive)"


###

# Test system: UACC-257
# PROCEDURE_SUMMARY: NCI tumour cell line growth inhibition, 48 h
The source made the active and inactive calls. No stated cut-off is given here; in the data, active = GI50 up to about 1.1 µM and inactive = higher.
Outcomes: 1.0 (active), 0.0 (inactive)

[[record]]
molecule = "Cc1cc(Br)ccc1/N=N/C1C(=O)ON=C1c1ccccc1 (configuration not stated)"
class_label = 0.0

[[record]]
molecule = "COc1c(C)c(C/C=C(\\C)CCCC(C)CCCC(C)CCCC(C)C)c(OC)c2ccccc12 (configuration not stated)"
class_label = 0.0

[[record]]
molecule = "c1ccc([P+](Cc2ccc(C[P+](c3ccccc3)(c3ccccc3)c3ccccc3)cc2)(c2ccccc2)c2ccccc2)cc1"
class_label = 0.0

[[record]]
molecule = "COc1ccc2[nH]c(Cl)c(/C=C3/C(=O)N(c4ccccc4)c4ccccc43)c2c1"
class_label = 0.0

[[record]]
molecule = "O=C(Nc1cccc(Cl)c1)c1cc2cc(/N=N/c3ccc(Br)cc3)ccc2oc1=O"
class_label = 0.0

[[record]]
molecule = "O=[N+]([O-])c1ccc(-c2ccc(C3=Nn4c(CNc5ccccc5Cl)nnc4SC3)o2)cc1"
class_label = 0.0

[[record]]
molecule = "COc1cccc2c1C(=O)c1ccc3cc(CO)cc(O)c3c1C2=O"
class_label = 1.0


###

# Tested on: SN12C
# PROCEDURE_SUMMARY: NCI tumour cell line growth inhibition, 48 h
Calls of active or inactive are those of the source. Rule as the data show it: active = GI50 up to about 1.1 µM and inactive = higher.
Recorded GI50, one value per entry.
REPORTED_ENDPOINT: GI50

[[record]]
compound = "CSCC(COC(C)=O)(CSC)c1ccncc1"
reported_endpoint = "GI50"
measured_value = "> 100 µM (inactive)"

[[record]]
compound = "c1ccc2c(c1)CCN1CCc3ccccc3C1C2 (configuration not stated)"
reported_endpoint = "GI50"
measured_value = "43.4 µM (inactive)"

[[record]]
compound = "Cc1nc(N)nc(S)c1CCC(=O)O"
reported_endpoint = "GI50"
measured_value = "> 100 µM (inactive)"

[[record]]
compound = "COc1ccc(/C=C/C(C(=O)O)C(=O)O)cc1"
reported_endpoint = "GI50"
measured_value = "51.3 µM (inactive)"

[[record]]
compound = "N#Cc1ccc(Nc2cnc3ccc(N)cc3n2)cc1"
reported_endpoint = "GI50"
measured_value = "> 100 µM (inactive)"

[[record]]
compound = "Cc1ccc(/C=C/C(=N/NC(=O)N/N=C(/C=C/c2ccc(C)cc2)C(C)C)C(C)C)cc1"
reported_endpoint = "GI50"
measured_value = "9.77 µM (inactive)"

[[record]]
compound = "Cc1cc2c(=O)cc(-c3ccncc3)oc2c(C(=O)O)c1C"
reported_endpoint = "GI50"
measured_value = "> 100 µM (inactive)"


###

# Test system: TK-10
# PROCEDURE_SUMMARY: NCI tumour cell line growth inhibition, 48 h
Active and inactive are the calls of the source. Cut-off read from the data, not from the text of the source: active = GI50 up to about 1.1 µM and inactive = higher.
REPORTED_ENDPOINT: GI50

[[record]]
molecule = "c1ccc2nc(CCC3CCCCN3)ccc2c1 (configuration not stated)"
reported_endpoint = "GI50"
measured_value = "> 100 µM (inactive)"

[[record]]
molecule = "C=C1CC(CN2CCC(=O)NC2=O)(c2ccccc2)OC1=O (configuration not stated)"
reported_endpoint = "GI50"
measured_value = "5.94 µM (inactive)"

[[record]]
molecule = "CCCCn1c2c(n(CCCC)c1=S)-c1c(n(CCCC)c(=S)n1CCCC)SSc1c(n(CCCC)c(=S)n1CCCC)-c1c(n(CCCC)c(=S)n1CCCC)SSc1c(n(CCCC)c(=S)n1CCCC)-c1c(n(CCCC)c(=S)n1CCCC)SS2"
reported_endpoint = "GI50"
measured_value = "> 30.2 µM (inactive)"

[[record]]
molecule = "c1ccc([P+](Cc2ccc(C[P+](c3ccccc3)(c3ccccc3)c3ccccc3)cc2)(c2ccccc2)c2ccccc2)cc1"
reported_endpoint = "GI50"
measured_value = "81.7 µM (inactive)"

[[record]]
molecule = "CCCCCCCCCCSS(=O)(=O)c1ccc(C)cc1"
reported_endpoint = "GI50"
measured_value = "21 µM (inactive)"

[[record]]
molecule = "CC(NCc1c(O)ccc2ccc(=O)oc12)C(=O)O (configuration not stated)"
reported_endpoint = "GI50"
measured_value = "> 100 µM (inactive)"

[[record]]
molecule = "CC1CCC2(NC1)OC1CC3[C@@H]4CC=C5C=CCC[C@]5(C)C4CC[C@]3(C)C1C2C (some centres not stated)"
reported_endpoint = "GI50"
measured_value = "15.3 µM (inactive)"

[[record]]
molecule = "Cn1nc2ccc3nccc(NCCNCCO)c3c2n1"
reported_endpoint = "GI50"
measured_value = "45.8 µM (inactive)"

[[record]]
molecule = "C=C(c1ccccc1)c1cc2c(=O)[nH]ccc2n1C"
reported_endpoint = "GI50"
measured_value = "55.3 µM (inactive)"

[[record]]
molecule = "N#Cc1cc(Sc2ccc(N)c(C#N)c2)ccc1N"
reported_endpoint = "GI50"
measured_value = "65.6 µM (inactive)"

[[record]]
molecule = "CC1(OCc2ccccc2)C(=O)N2C1N(C(=O)OCc1ccccc1)CC2(C)C (configuration not stated)"
reported_endpoint = "GI50"
measured_value = "> 100 µM (inactive)"

[[record]]
molecule = "O=C(O)CC(C(=O)O)c1ccccc1[N+](=O)[O-] (configuration not stated)"
reported_endpoint = "GI50"
measured_value = "> 100 µM (inactive)"

[[record]]
molecule = "O=C(O)CCSC(=O)Nc1ccc([N+](=O)[O-])cc1"
reported_endpoint = "GI50"
measured_value = "> 100 µM (inactive)"

[[record]]
molecule = "CC(C)CC(NC(=O)C(CSc1ccc([N+](=O)[O-])cc1)Cc1ccccc1)C(=O)Nc1ccccc1 (configuration not stated)"
reported_endpoint = "GI50"
measured_value = "58.2 µM (inactive)"

[[record]]
molecule = "Cn1c(=O)ccc2cc(C(=O)c3ccccc3)ccc21"
reported_endpoint = "GI50"
measured_value = "35.2 µM (inactive)"

[[record]]
molecule = "CCC(=N\\NC(N)=S)/C(C)=N/O"
reported_endpoint = "GI50"
measured_value = "> 100 µM (inactive)"

[[record]]
molecule = "C=CCCCC(C#N)(c1ccccc1)N1CCCC1 (configuration not stated)"
reported_endpoint = "GI50"
measured_value = "> 100 µM (inactive)"

[[record]]
molecule = "CCCCc1c2c(nc3c1CCC/C3=C\\c1ccccc1)C(=O)CCC2"
reported_endpoint = "GI50"
measured_value = "24.5 µM (inactive)"

[[record]]
molecule = "NC1CC(=O)c2cc(Cl)sc21 (configuration not stated)"
reported_endpoint = "GI50"
measured_value = "> 100 µM (inactive)"

[[record]]
molecule = "CC(C)(C)[Si](C)(C)OCC1OC(n2cnc3c(N)ncnc32)C(O)C1O (configuration not stated)"
reported_endpoint = "GI50"
measured_value = "> 100 µM (inactive)"

[[record]]
molecule = "COC(=O)c1ccc(/C=C2\\Oc3ccccc3C2=O)cc1"
reported_endpoint = "GI50"
measured_value = "> 100 µM (inactive)"

[[record]]
molecule = "COC(=O)CCc1cc(OC)c2oc(-c3ccc(OC)c(OC)c3)c(CO)c2c1"
reported_endpoint = "GI50"
measured_value = "> 100 µM (inactive)"

